measurementDescription: Dipeptide cleavage half time in PBS on model hexapeptide (HPLC / LC-MS)
experimentalSetup: buffer
Record form. Attribute: half-life. Fill in for each entry.
Entry rule: numbers only, all in h.

Reported half-life, compound C[C@@H](O)[C@H](NC(=O)CNC(=O)[C@H](CCCNC(=N)N)NC(=O)[C@H](CO)NC(=O)[C@H](Cc1c[nH]cn1)NC(=O)[C@@H](N)Cc1ccc(NC(=O)[C@@H]2CCCN2C(=O)[C@H](N)Cc2ccccc2)cc1)C(=O)N[C@@H](Cc1ccccc1)C(N)=O : ____
20

Reported half-life, compound CC(C)C[C@H](N)C(=O)N1CCC[C@H]1C(=O)Nc1ccc(C[C@H](N)C(=O)N[C@@H](Cc2c[nH]cn2)C(=O)N[C@@H](CO)C(=O)N[C@@H](CCCNC(=N)N)C(=O)NCC(=O)N[C@H](C(=O)N[C@@H](Cc2ccccc2)C(N)=O)[C@@H](C)O)cc1 : ____
62

Reported half-life, compound C[C@@H](O)[C@H](NC(=O)CNC(=O)[C@H](CCCNC(=N)N)NC(=O)[C@H](CO)NC(=O)[C@H](Cc1c[nH]cn1)NC(=O)[C@@H](N)Cc1ccc(NC(=O)[C@@H]2CCCN2C(=O)[C@@H](N)CO)cc1)C(=O)N[C@@H](Cc1ccccc1)C(N)=O : ____
34
